Assay: Pharmacokinetics after single i.v. or oral dose in rats
Assay type: in vivo, Sprague-Dawley rats
Conditions: male, Sprague-Dawley, rat, plasma, iv, 1 mg/kg, Plasma concentration of compound measured after clozapine administration, 30 min, clozapine i.v. 1 mg/kg, mean ± SD
readout-name: concentration at 30 min (ng/mL)
Answer in ng/mL, number only, no unit symbol.

Give the measured concentration at 30 min of Clc1ccc2c(c1)N=C(N1CCNCC1)c1ccccc1N2 [NDMC] . 2.8

---

Assay: Pharmacokinetics after i.v. or oral dose in dogs
Format: in vivo, beagle dogs
Details: beagle, dog, plasma, iv, 1 mg/kg, Plasma concentration of compound measured after clozapine administration, 180 min, clozapine i.v. 1 mg/kg
readout-name: concentration at 180 min (ng/mL)
Answer in ng/mL, number only, no unit symbol.

Give the measured concentration at 180 min of `Clc1ccc2c(c1)N=C(N1CCNCC1)c1ccccc1N2` . 4.89

---

Assay: Pharmacokinetics after single i.v. or oral dose in rats
Type: in vivo, Sprague-Dawley rats
Details: male, Sprague-Dawley, rat, plasma, iv, 1 mg/kg, Plasma concentration after NDMC administration, 180 min, NDMC i.v. 1 mg/kg, mean ± SD
readout-name: concentration at 180 min (ng/mL)
Answer in ng/mL, number only, no unit symbol.

Give the measured concentration at 180 min of Clc1ccc2c(c1)N=C(N1CCNCC1)c1ccccc1N2 [NDMC] . 11.7

---

Assay: Pharmacokinetics after i.v. or oral dose in dogs
Assay type: in vivo, beagle dogs
Details: beagle, dog, plasma, po, 10 mg/kg, Plasma concentration after NDMC administration, 10 min, NDMC p.o. 10 mg/kg
readout-name: concentration at 10 min (ng/mL)
Answer in ng/mL, number only, no unit symbol.

Give the measured concentration at 10 min of `Clc1ccc2c(c1)N=C(N1CCNCC1)c1ccccc1N2` . 1

---

Assay: Pharmacokinetics after single i.v. or oral dose in rats
Type: in vivo, Sprague-Dawley rats
Conditions: male, Sprague-Dawley, rat, serum, po, 10 mg/kg, after NDMC p.o. 10 mg/kg, read-out: Cmax
readout-name: Cmax (ng/mL)
Answer in ng/mL, number only, no unit symbol.

Give the measured Cmax of `Clc1ccc2c(c1)N=C(N1CCNCC1)c1ccccc1N2` . 582

---

Test: Brain-to-plasma ratio in rats
Assay type: in vivo
Details: male, Sprague-Dawley, rat, po, 10 mg/kg, brain-to-plasma ratio of NDMC, 240 minutes after oral 10 mg/kg NDMC
readout-name: Kp at 4 h

Give the measured Kp at 4 h of `Clc1ccc2c(c1)N=C(N1CCNCC1)c1ccccc1N2` . 1

---

Assay: Pharmacokinetics after single i.v. or oral dose in rats
Format: in vivo, Sprague-Dawley rats
Settings: male, Sprague-Dawley, rat, plasma, iv, 1 mg/kg
readout-name: half-life (min)
Answer in min, number only, no unit symbol.

Give the measured half-life of `Clc1ccc2c(c1)N=C(N1CCNCC1)c1ccccc1N2` . 39.3

---

Experiment: Pharmacokinetics after i.v. or oral dose in dogs
Type: in vivo, beagle dogs
Conditions: beagle, dog, plasma, po, 10 mg/kg, Plasma concentration of compound measured after clozapine administration, 10 min, clozapine p.o. 10 mg/kg
readout-name: concentration at 10 min (ng/mL)
Answer in ng/mL, number only, no unit symbol.

Give the measured concentration at 10 min of Clc1ccc2c(c1)N=C(N1CCNCC1)c1ccccc1N2 [NDMC] . 0

---

Test: Pharmacokinetics after i.v. or oral dose in dogs
Format: in vivo, beagle dogs
Conditions: beagle, dog, plasma, iv, 1 mg/kg, Plasma concentration after NDMC administration, 240 min, NDMC i.v. 1 mg/kg
readout-name: concentration at 240 min (ng/mL)
Answer in ng/mL, number only, no unit symbol.

Give the measured concentration at 240 min of Clc1ccc2c(c1)N=C(N1CCNCC1)c1ccccc1N2 [NDMC] . 27

---

Experiment: Pharmacokinetics after single i.v. or oral dose in rats
Format: in vivo, Sprague-Dawley rats
Conditions: male, Sprague-Dawley, rat, plasma, iv, 1 mg/kg, Plasma concentration of compound measured after clozapine administration, 180 min, clozapine i.v. 1 mg/kg, mean ± SD
readout-name: concentration at 180 min (ng/mL)
Answer in ng/mL, number only, no unit symbol.

Give the measured concentration at 180 min of `Clc1ccc2c(c1)N=C(N1CCNCC1)c1ccccc1N2` . 0.7

---

Test: Pharmacokinetics after single i.v. or oral dose in rats
Type: in vivo, Sprague-Dawley rats
Conditions: male, Sprague-Dawley, rat, plasma, po, 10 mg/kg, Plasma concentration after NDMC administration, 30 min, NDMC p.o. 10 mg/kg, mean ± SD, two p.o. groups
readout-name: concentration at 30 min (ng/mL)
Answer in ng/mL, number only, no unit symbol.

Give the measured concentration at 30 min of `Clc1ccc2c(c1)N=C(N1CCNCC1)c1ccccc1N2` . 582

---

Assay: Pharmacokinetics after i.v. or oral dose in dogs
Format: in vivo, beagle dogs
Settings: beagle, dog, plasma, iv, 1 mg/kg, Plasma concentration after NDMC administration, 2 min, NDMC i.v. 1 mg/kg
readout-name: concentration at 2 min (ng/mL)
Answer in ng/mL, number only, no unit symbol.

Give the measured concentration at 2 min of Clc1ccc2c(c1)N=C(N1CCNCC1)c1ccccc1N2 [NDMC] . 182

---

Test: Pharmacokinetics after single i.v. or oral dose in rats
Type: in vivo, Sprague-Dawley rats
Details: male, Sprague-Dawley, rat, plasma, iv, 1 mg/kg, Plasma concentration of compound measured after clozapine administration, 60 min, clozapine i.v. 1 mg/kg, mean ± SD
readout-name: concentration at 60 min (ng/mL)
Answer in ng/mL, number only, no unit symbol.

Give the measured concentration at 60 min of `Clc1ccc2c(c1)N=C(N1CCNCC1)c1ccccc1N2` . 4

---

Target: 5-HT2C receptor (Homo sapiens, UniProt P28335)
Sequence (P28335 33-458): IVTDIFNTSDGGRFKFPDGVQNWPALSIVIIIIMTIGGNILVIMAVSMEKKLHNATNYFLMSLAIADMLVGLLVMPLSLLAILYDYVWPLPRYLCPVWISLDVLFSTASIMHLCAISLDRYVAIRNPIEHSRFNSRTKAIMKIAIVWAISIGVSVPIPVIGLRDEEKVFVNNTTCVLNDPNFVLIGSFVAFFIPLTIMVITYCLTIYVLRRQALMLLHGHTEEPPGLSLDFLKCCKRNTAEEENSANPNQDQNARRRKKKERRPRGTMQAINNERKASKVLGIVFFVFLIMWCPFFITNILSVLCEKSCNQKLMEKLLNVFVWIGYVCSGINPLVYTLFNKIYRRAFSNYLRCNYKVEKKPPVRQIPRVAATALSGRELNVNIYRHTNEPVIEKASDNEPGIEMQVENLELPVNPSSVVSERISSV
readout-name: Ki
Could you write the number and then its unit?

Give 5-HT2C receptor (Homo sapiens, UniProt P28335) Ki for Clc1ccc2c(c1)N=C(N1CCNCC1)c1ccccc1N2 [NDMC] 0.0158 µM

---

Assay: Pharmacokinetics after i.v. or oral dose in dogs
Type: in vivo, beagle dogs
Details: beagle, dog, plasma, po, 10 mg/kg, Plasma concentration of compound measured after clozapine administration, 60 min, clozapine p.o. 10 mg/kg
readout-name: concentration at 60 min (ng/mL)
Answer in ng/mL, number only, no unit symbol.

Give the measured concentration at 60 min of `Clc1ccc2c(c1)N=C(N1CCNCC1)c1ccccc1N2` . 25.4
